B1: ATGL (PNPLA2, patatin-like phospholipase domain-containing protein 2), human, full length / CIDEC (FSP27), human (parent)
chain 1: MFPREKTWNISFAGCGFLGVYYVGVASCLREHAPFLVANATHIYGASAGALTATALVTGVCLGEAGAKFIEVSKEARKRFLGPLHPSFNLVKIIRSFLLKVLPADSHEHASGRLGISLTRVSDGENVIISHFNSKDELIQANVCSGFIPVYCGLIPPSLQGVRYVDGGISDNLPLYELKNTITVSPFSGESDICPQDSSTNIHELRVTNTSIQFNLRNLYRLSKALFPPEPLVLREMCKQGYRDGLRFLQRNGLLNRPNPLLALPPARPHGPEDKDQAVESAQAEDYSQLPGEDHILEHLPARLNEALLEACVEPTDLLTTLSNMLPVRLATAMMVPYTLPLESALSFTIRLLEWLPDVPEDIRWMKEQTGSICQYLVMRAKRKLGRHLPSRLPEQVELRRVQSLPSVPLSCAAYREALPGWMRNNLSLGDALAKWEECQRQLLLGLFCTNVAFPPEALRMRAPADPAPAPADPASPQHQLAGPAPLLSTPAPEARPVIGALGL
chain 2: MEYAMKSLSLLYPKSLSRHVSVRTSVVTQQLLSEPSPKAPRARPCRVSTADRSVRKGIMAYSLEDLLLKVRDTLMLADKPFFLVLEEDGTTVETEEYFQALAGDTVFMVLQKGQKWQPPSEQGTRHPLSLSHKPAKKIDVARVTFDLYKLNPQDFIGCLNVKATFYDTYSLSYDLHCCGAKRIMKEAFRWALFSMQATGHVLLGTSCYLQQLLDATEEGQPPKGKASSLIPTCLKILQ

# Variants of: B1
# Assay remarks: LUMIER: Protein A-ATGL variant and firefly luciferase-partner co-expressed in HEK293T, lysates immunoprecipitated on IgG-coated plates, co-precipitated partner measured as luciferase luminescence
# Assay setup: with CIDEC (FSP27), transient co-transfection, IgG-coated LUMITRAC plates, 2 h at 4 °C, three PBS washes, Bright-Glo luciferase reagent, triplicates per assay, two …, parent: 0.24, not graded, scale: log2 fold change of co-immunoprecipitated luminescence relative to wild-type ATGL within each experiment
Listing of entries alongside the reported screen value.
Respond numerically, and do not add a unit to the figure.

Some solved entries appear below for comparison.
chain 1 S158A: 0.0569
chain 1 S87A: -0.798
chain 1 P103K: -0.421
chain 1 V328A: -0.193
chain 1 E368A: -0.54

Fill in the blank: the reported screen value of chain 1 P258L is ____.
-0.788
